test system: UACC-62 melanoma; assay: NCI tumour cell line growth inhibition, 48 h
// reported TGI per item

These solved cases illustrate the format of a correct answer.
compound: COC(=O)[C@H]1NC(=O)CCSSC1(C)C
TGI: > 100 µM
//
compound: O=C(c1ccccc1)n1cc(-c2ccccc2)c2c(=O)[nH]cnc21
TGI: > 100 µM
//
compound: Cc1cn(C2CC(N)C(C(=O)NCC(=O)O)O2)c(=O)[nH]c1=O (configuration not stated)
TGI: > 100 µM

// lookup TGI | system=UACC-62 melanoma | key= O=[N+]([O-])c1ccc(C(Nc2ccccc2)P(c2ccccc2)c2ccccc2)cc1 (configuration not stated)
> 100 µM

Request: Oc1ccc(O)c(-c2cc(-c3ccc(Cl)cc3)nn2-c2ccccc2)c1
7.88 µM

Request: O=C(CN1CCN(c2cc3c(cc2F)c(=O)c(C(=O)O)cn3C2CC2)CC1)Nc1nc(-c2ccc(Cl)cc2)cs1
> 100 µM

Request: S=c1nc(COc2ccc(Cl)cc2Cl)[nH][nH]1
> 100 µM

Request: Cc1ccc(-c2c3c(nn2-c2ccc(S(N)(=O)=O)cc2)-c2ccccc2C3)cc1
24.1 µM

Request: COc1cccc(-c2nn(-c3ccccc3)cc2-c2ccnc(NCCNC(=O)Nc3cccc(C(F)(F)F)c3)c2)c1
3.73 µM

Request: C[n+]1c(-c2ccc(/C=N/Nc3ccnc(N/N=C/c4ccc(-c5cn6ccsc6[n+]5C)cc4)n3)cc2)cn2ccsc21
> 100 µM

Request: O=[N+]([O-])c1ccc(C2CC(c3ccccc3Cl)=Nc3ccccc3S2=O)cc1 (configuration not stated)
6.73 µM

Request: COC(OC)C1OCC(n2cc(F)c(=O)[nH]c2=O)C1O (configuration not stated)
> 100 µM

Request: O=C1C2=C(c3ccccc31)C(c1ccccc1)N1C(=O)CSC1=N2 (configuration not stated)
> 100 µM

Request: O=C(NC1CCCCC1)c1cc2ccccc2cc1O
> 100 µM

Request: CSC1C(=O)Nc2ccc3ccccc3c21 (configuration not stated)
35.9 µM

Request: C=CCc1cc(-c2cc(CC=C)c(O)c(CN(CC)CC)c2)cc(CN(CC)CC)c1O
48.5 µM

Request: COc1cc(OC)c2nccc(NCCCN(C)C)c2c1[N+](=O)[O-]
> 100 µM

Source listed as PubChem BioAssay (NCI).
